# experiment-description: Plasma pharmacokinetics and total colon tissue distribution in mice, single oral administration
# Type: in vivo, mouse (male C57BL/6)
# protocol-conditions: male, C57BL/6, mouse, plasma, 5 mg/kg, read-out: Median plasma concentration
readout-kind: concentration at 1 h (ng/mL)
Unit ng/mL implied. Number only.

// query Which concentration at 1 h is reported for this compound? COc1c(NC(=O)Nc2ccc(Oc3ccnc(Nc4ccccc4)c3)c3ccccc23)cc(C(C)(C)C)cc1C(=O)NC1COC1 [Example 75]
// result 1.8

###

Record type: IC50 measurement. Applies to: Syk (Homo sapiens (Human), UniProt P43405)
Unit nM implied. Number only.

>  <compound>
COCCOCCOCCNC(=O)c1cc(Nc2nccc(Oc3ccc(NC(=O)Nc4cc(C(C)(C)C)cc(NS(C)(=O)=O)c4OC)c4ccccc34)n2)cc(OC)c1 [Example 7]

>  <test-system>
Syk (Homo sapiens (Human), UniProt P43405)

>  <IC50 / nM>
554

$$$$
>  <compound>
C#Cc1cc(Nc2cc(Oc3ccc(NC(=O)Nc4cc(C(C)(C)C)cc(NS(C)(=O)=O)c4OC)c4ccccc34)ccn2)cc(C(=O)NCCOCCOCCOC)c1 [Example 54]

>  <test-system>
Syk (Homo sapiens (Human), UniProt P43405)

>  <IC50 / nM>
1190

$$$$
>  <compound>
CNC(=O)c1cc(C(C)(C)C)cc(NC(=O)Nc2ccc(Oc3ccnc(Nc4cc(OC)cc(OCCOCCOCCOC)c4)c3)c3ccccc23)c1OC [Example 29]

>  <test-system>
Syk (Homo sapiens (Human), UniProt P43405)

>  <IC50 / nM>
96

$$$$

// query Which IC50 is reported for this compound? C#Cc1cc(Nc2cc(Oc3ccc(NC(=O)Nc4cc(C(C)(C)C)cc(NS(C)(=O)=O)c4OC)c4ccccc34)ccn2)cc(C(=O)NCCOCCOC)c1 [Example 52]
// result 1260

// query And for C#Cc1cc(Nc2cc(Oc3ccc(NC(=O)Nc4cc(C(C)(C)C)cc(C(N)=O)c4OC)c4ccccc34)ccn2)cc(C(=O)NCCN2CCOCC2)c1 [Example 48] ?
// result 490

// query And for COCCOCCOCCOc1cc(Nc2nccc(Oc3ccc(NC(=O)Nc4cc(C(C)(C)C)cc(S(N)(=O)=O)c4OC)c4ccccc34)n2)cc(OC)c1 [Example 55] ?
// result 131

###

# experiment-description: Plasma pharmacokinetics and total colon tissue distribution in mice, single oral administration
# Assay type: in vivo, mouse (male C57BL/6)
# protocol-conditions: male, C57BL/6, mouse, total colon, 5 mg/kg, read-out: Median total colon concentration
Attribute: concentration at 4 h
Unit ng/g implied. Number only.

>  <test-smiles>
COc1c(NC(=O)Nc2ccc(Oc3ccnc(Nc4ccccc4)c3)c3ccccc23)cc(C(C)(C)C)cc1C(=O)NC1COC1

>  <observed>
1340

$$$$

The record that follows has no concentration at 4 h shown yet.
// query Which concentration at 4 h is reported for this compound? COCCOCCOCCNC(=O)c1cc(Nc2cc(Oc3ccc(NC(=O)Nc4cc(C(C)(C)C)cc(NS(C)(=O)=O)c4OC)c4ccccc34)ccn2)cc(OC)c1
// result 209

###

Attribute: % Parent Remaining
# experiment-description: Hydrolytic stability study
# Assay type: physicochemical
# protocol-conditions: DMSO:water (3:1), 1 mg/mL, 60° C., 300 min
Unit % implied. Number only.

Example results:
>  <molecule>
C#Cc1cc(Nc2nccc(Oc3ccc(NC(=O)Nc4cc(C(C)C)nn4-c4ccc(C)cc4)c4ccccc34)n2)cc(C(=O)NCCN2CCOCC2)c1 [Reference Compound B, reference compound]

>  <observed>
82

$$$$
>  <molecule>
COCCOCCOCCOc1cc(Nc2nccc(Oc3ccc(NC(=O)Nc4cc(C(C)(C)C)cc(NS(C)(=O)=O)c4OC)c4ccccc34)n2)cc(OC)c1 [Example 4]

>  <observed>
103

$$$$
>  <molecule>
COc1c(NC(=O)Nc2ccc(Oc3ccnc(Nc4ccccc4)c3)c3ccccc23)cc(C(C)(C)C)cc1C(=O)NC1COC1 [Example 75]

>  <observed>
101

$$$$
>  <molecule>
COc1cc(Nc2cc(Oc3ccc(NC(=O)Nc4cc(C(C)(C)C)cc(NS(C)(=O)=O)c4OC)c4ccccc34)ccn2)cc(C(=O)NCCN2CCOCC2)c1 [Example 27]

>  <observed>
102

$$$$

// query Which % Parent Remaining is reported for this molecule? C#Cc1cc(Nc2nccc(Oc3ccc(NC(=O)Nc4cc(C(C)(C)C)cc(NS(C)(=O)=O)c4OC)c4ccccc34)n2)cc(C(=O)NCCOCCOCCOC)c1 [Example 16]
// result 100

###

# test-system: hERG channel (Homo sapiens (Human), UniProt Q12809)
# Sequence (Q12809 whole entry): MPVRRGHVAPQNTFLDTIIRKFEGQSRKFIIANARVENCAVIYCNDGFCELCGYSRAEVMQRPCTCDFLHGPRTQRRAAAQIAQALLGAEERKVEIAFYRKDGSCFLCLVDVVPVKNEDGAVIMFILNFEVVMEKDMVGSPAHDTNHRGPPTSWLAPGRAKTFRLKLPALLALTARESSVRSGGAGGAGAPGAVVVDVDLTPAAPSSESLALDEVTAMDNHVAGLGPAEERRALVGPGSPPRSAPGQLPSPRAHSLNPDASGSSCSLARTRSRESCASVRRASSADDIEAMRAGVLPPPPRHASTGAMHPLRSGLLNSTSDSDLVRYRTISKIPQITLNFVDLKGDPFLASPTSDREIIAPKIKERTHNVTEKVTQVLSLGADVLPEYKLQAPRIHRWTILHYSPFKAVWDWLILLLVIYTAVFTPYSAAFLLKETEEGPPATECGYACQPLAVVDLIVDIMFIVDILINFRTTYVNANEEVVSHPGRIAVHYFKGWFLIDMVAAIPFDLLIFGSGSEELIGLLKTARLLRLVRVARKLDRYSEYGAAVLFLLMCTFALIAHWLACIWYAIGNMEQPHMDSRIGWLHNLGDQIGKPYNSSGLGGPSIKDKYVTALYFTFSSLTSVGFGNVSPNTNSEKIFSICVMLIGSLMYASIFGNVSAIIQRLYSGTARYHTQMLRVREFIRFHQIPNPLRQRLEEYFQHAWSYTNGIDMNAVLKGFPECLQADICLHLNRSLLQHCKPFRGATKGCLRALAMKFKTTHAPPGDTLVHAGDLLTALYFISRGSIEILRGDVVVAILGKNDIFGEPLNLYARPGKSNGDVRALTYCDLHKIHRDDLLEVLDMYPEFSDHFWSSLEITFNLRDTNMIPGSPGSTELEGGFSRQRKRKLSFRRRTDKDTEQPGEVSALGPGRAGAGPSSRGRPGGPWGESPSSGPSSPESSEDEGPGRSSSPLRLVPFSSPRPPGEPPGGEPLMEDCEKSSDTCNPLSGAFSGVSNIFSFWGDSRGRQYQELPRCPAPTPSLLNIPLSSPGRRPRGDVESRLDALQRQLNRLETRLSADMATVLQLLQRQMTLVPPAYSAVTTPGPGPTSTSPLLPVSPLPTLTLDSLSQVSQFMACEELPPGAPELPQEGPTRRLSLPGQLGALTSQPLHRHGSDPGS
# experiment-description: hERG inhibition (IonWorks patch clamp electrophysiology)
# Assay type: cell-based
# protocol-conditions: human, 3 μM
# Method: Compounds of the invention were tested for inhibition of the human ether a go-go (hERG) channel using IonWorks™ patch clamp electrophysiology at Essen Bioscience (Welwyn Garden City, England).
readout-kind: inhibition at 3 µM (%)
Unit % implied. Number only.

// query Which inhibition at 3 µM is reported for this compound? COc1c(NC(=O)Nc2ccc(Oc3ccnc(Nc4ccccc4)c3)c3ccccc23)cc(C(C)(C)C)cc1C(=O)NC1COC1
// result 0

// query And for COCCOCCOCCOc1cc(Nc2nccc(Oc3ccc(NC(=O)Nc4cc(C(C)(C)C)cc(NS(C)(=O)=O)c4OC)c4ccccc34)n2)cc(OC)c1 ?
// result -4

// query And for COc1cc(Nc2cc(Oc3ccc(NC(=O)Nc4cc(C(C)(C)C)cc(NS(C)(=O)=O)c4OC)c4ccccc34)ccn2)cc(C(=O)NCCN2CCOCC2)c1 ?
// result -3

// query And for COCCOCCOCCNC(=O)c1cc(Nc2cc(Oc3ccc(NC(=O)Nc4cc(C(C)(C)C)cc(NS(C)(=O)=O)c4OC)c4ccccc34)ccn2)cc(OC)c1 ?
// result -2

###

# test-system: UniProt:P08684
# Sequence (P08684 whole entry): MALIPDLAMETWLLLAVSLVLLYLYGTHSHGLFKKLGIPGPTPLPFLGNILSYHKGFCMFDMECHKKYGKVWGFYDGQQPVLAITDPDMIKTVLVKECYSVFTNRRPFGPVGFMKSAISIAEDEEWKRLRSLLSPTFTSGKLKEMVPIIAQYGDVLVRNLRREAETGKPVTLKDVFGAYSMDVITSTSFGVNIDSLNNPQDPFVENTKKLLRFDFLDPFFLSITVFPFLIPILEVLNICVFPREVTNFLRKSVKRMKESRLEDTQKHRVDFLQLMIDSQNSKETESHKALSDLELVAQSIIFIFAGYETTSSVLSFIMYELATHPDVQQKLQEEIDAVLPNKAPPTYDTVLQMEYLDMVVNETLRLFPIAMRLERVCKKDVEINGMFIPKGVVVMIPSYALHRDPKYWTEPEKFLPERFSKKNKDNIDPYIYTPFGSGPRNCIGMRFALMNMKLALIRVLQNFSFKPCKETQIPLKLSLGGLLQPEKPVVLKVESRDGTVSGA
# experiment-description: CYP3A4 inhibition study
# Format: in vitro ADME
# protocol-conditions: human, CYP3A4, 0 min preincubation, 15 μM; read-out: 15 μM % Inh
Attribute: inhibition at 15 µM
Write your answer as a measured quantity: the number, then the unit.

Example results:
>  <test-smiles>
COc1cc(Nc2nccc(Oc3ccc(NC(=O)Nc4cc(C(C)(C)C)cc(NS(C)(=O)=O)c4OC)c4ccccc34)n2)cc(S(=O)(=O)C2CC2)c1

>  <inhibition at 15 µM>
0%

$$$$
>  <test-smiles>
COc1cc(Nc2cc(Oc3ccc(NC(=O)Nc4cc(C(C)(C)C)cc(NS(C)(=O)=O)c4OC)c4ccccc34)ccn2)cc(C(=O)NCCN2CCOCC2)c1

>  <inhibition at 15 µM>
19%

$$$$
>  <test-smiles>
COCCOCCOCCNC(=O)c1cc(Nc2cc(Oc3ccc(NC(=O)Nc4cc(C(C)(C)C)cc(NS(C)(=O)=O)c4OC)c4ccccc34)ccn2)cc(OC)c1

>  <inhibition at 15 µM>
22%

$$$$

The record that follows has no inhibition at 15 µM shown yet.
// query Which inhibition at 15 µM is reported for this compound? COc1c(NC(=O)Nc2ccc(Oc3ccnc(Nc4ccccc4)c3)c3ccccc23)cc(C(C)(C)C)cc1C(=O)NC1COC1
// result 3%

###

Attribute: pIC50
# test-system: Syk (Homo sapiens (Human))
# pIC50: negative log10 of molar concentration; output just the value

Example results:
>  <test-smiles>
C#Cc1cc(Nc2cc(Oc3ccc(NC(=O)Nc4cc(C(C)(C)C)cc(C(=O)NC)c4OC)c4ccccc34)ccn2)cc(C(=O)NCCN2CCOCC2)c1

>  <test-system>
Syk (Homo sapiens (Human))

>  <pIC50>
6.24

$$$$
>  <test-smiles>
COCCOCCOCCOc1cc(Nc2nccc(Oc3ccc(NC(=O)Nc4cc(C(C)(C)C)cc(C(=O)NCCO)c4OC)c4ccccc34)n2)cc(OC)c1

>  <test-system>
Syk (Homo sapiens (Human))

>  <pIC50>
7.32

$$$$
>  <test-smiles>
COCCOCCOCCOc1cc(Nc2cc(Oc3ccc(NC(=O)Nc4cc(C(C)(C)C)cc(C(=O)NC5COC5)c4OC)c4ccccc34)ccn2)cc(OC)c1

>  <test-system>
Syk (Homo sapiens (Human))

>  <pIC50>
7.41

$$$$

// query Which pIC50 is reported for this compound? CNC(=O)c1cc(C(C)(C)C)cc(NC(=O)Nc2ccc(Oc3ccnc(Nc4cc(OC)cc(OCCOCCOCCOC)c4)n3)c3ccccc23)c1OC
// result 7.46

// query And for C#Cc1cc(Nc2cc(Oc3ccc(NC(=O)Nc4cc(C(N)=O)cc(C(C)(C)C)c4)c4ccccc34)ccn2)cc(C(=O)NCCOCCOCCOC)c1 ?
// result 5.88

// query And for COc1cc(Nc2nccc(Oc3ccc(NC(=O)Nc4cc(C(C)(C)C)cc(NS(C)(=O)=O)c4OC)c4ccccc34)n2)cc(OCCOCCOCCN(C)C)c1 ?
// result 6.63
